Test system: Tyrosine-protein kinase ABL1 (Homo sapiens), P00519 [E255K]
Sequence (P00519 whole entry E255K): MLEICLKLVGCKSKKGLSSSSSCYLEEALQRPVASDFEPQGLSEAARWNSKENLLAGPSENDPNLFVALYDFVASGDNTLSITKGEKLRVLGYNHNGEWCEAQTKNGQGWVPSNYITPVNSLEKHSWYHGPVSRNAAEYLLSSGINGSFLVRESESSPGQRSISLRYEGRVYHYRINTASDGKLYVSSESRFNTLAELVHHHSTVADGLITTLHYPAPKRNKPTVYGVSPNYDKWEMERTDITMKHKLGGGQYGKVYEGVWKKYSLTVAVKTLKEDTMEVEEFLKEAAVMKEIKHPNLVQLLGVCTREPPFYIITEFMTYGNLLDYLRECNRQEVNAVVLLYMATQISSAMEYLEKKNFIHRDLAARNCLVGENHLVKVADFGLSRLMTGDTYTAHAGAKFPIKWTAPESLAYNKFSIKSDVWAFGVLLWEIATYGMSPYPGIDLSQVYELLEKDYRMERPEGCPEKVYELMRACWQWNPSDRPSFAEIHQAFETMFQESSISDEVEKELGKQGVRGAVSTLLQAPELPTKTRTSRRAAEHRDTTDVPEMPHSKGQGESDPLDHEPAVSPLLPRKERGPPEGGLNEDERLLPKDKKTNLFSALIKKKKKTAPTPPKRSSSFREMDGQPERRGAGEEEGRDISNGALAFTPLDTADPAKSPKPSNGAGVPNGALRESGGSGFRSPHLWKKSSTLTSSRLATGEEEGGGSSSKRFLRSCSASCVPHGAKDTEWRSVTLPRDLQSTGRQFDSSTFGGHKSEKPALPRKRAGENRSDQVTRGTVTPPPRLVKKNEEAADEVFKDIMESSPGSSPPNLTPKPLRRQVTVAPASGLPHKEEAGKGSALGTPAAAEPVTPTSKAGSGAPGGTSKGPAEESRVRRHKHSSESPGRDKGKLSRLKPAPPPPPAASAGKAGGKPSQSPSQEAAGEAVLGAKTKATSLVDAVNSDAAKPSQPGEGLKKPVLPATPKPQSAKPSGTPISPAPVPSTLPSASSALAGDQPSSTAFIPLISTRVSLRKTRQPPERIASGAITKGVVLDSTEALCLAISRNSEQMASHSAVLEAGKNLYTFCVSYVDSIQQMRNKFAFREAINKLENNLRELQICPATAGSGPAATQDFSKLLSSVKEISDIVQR
Conditions: at 0.1 µM
Hi all, reminder that labels come from inhibition, split as lower bin = under 2%, middle bin = from 2% up to 3%, upper bin = 3% and over

substance smiles	test system	assigned class
COc1ccc(-c2nn3ncccc3c2-c2ccnc(Nc3ccc(F)c(F)c3)n2)cc1	Tyrosine-protein kinase ABL1 (Homo sapiens), P00519 [E255K]	upper bin
CS(=O)(=O)CCNCc1ccc(-c2ccc3ncnc(Nc4ccc(OCc5ccccc5)cc4)c3c2)o1	Tyrosine-protein kinase ABL1 (Homo sapiens), P00519 [E255K]	middle bin
Fc1cccc(COc2ccc(Nc3ncncc3C#Cc3ccccc3)cc2Cl)c1	Tyrosine-protein kinase ABL1 (Homo sapiens), P00519 [E255K]	upper bin
COc1c(C(N)=O)cc(-c2ccc(Cl)cc2)cc1-c1ccc(S(N)(=O)=O)cc1	Tyrosine-protein kinase ABL1 (Homo sapiens), P00519 [E255K]	middle bin
CN(c1ccc(NC(=O)NCCN2CCOCC2)cc1)c1ccnc(Nc2ccc(CS(C)(=O)=O)cc2)n1	Tyrosine-protein kinase ABL1 (Homo sapiens), P00519 [E255K]	middle bin
CCOc1ccc2c(-c3ccnc(Nc4cc(OC)cc(C(F)(F)F)c4)n3)cnn2n1	Tyrosine-protein kinase ABL1 (Homo sapiens), P00519 [E255K]	lower bin
FC(F)(F)CNc1nccc(-c2cnn3ncccc23)n1	Tyrosine-protein kinase ABL1 (Homo sapiens), P00519 [E255K]	upper bin
COc1cc(N2CCN(C(C)C)CC2)ccc1Nc1nc(Nc2cccc3ncccc23)c2cc[nH]c2n1	Tyrosine-protein kinase ABL1 (Homo sapiens), P00519 [E255K]	lower bin
COc1cccc(Nc2nccc(-c3cnn4ncccc34)n2)c1	Tyrosine-protein kinase ABL1 (Homo sapiens), P00519 [E255K]	upper bin
